Catalogue of AC50 values
- Test system: cytotoxicity, CellTiter-Glo ATP luminescence
- PROTOCOL DESCRIPTION: loss of cell viability by ATP content – CellTiter-Glo, cytotoxicity control, dose response (AID 1259333)
Calls of active or inactive are those of the source. No rule for the calls is given here; tested in parental BL2 cells.

Look up AC50 for this molecule: CCCC(=O)NC1=C(Cl)C(=O)c2ccccc2C1=O
1.12 µM

Look up AC50 for this molecule: c1ccc(-c2nc(-c3ccccn3)no2)cc1
11.5 µM

Look up AC50 for this molecule: O=C(c1ccc(-c2ccc([N+](=O)[O-])cc2)o1)N1CCCC(C(F)(F)F)C1 (stereo not drawn)
> 20 µM (inactive)

Look up AC50 for this molecule: C[C@@H]1CC=CC[C@H](c2ccc(F)cc2)NC(=O)[C@@H](Cc2ccccc2)N(C)C(=O)c2ccccc2O1 (mixture of isomers)
> 20 µM (inactive)

* * *

- Test system: cytotoxicity, CellTiter-Glo ATP luminescence
- PROTOCOL DESCRIPTION: loss of cell viability by ATP content – CellTiter-Glo, cytotoxicity control, dose response (AID 1259333)
Calls of active or inactive are those of the source. The rule behind the calls is not given here; tested in parental BL2 cells.
Select the matching outcome among active, inactive

Example entries begin here.
{"COMPOUND": "O=S(=O)(c1cccc2cnccc12)N1CCNCC1", "TARGET DESC": "cytotoxicity, CellTiter-Glo ATP luminescence", "GROUP": "active"}
{"COMPOUND": "CC(=O)OC1C(=O)OCC23CCC4(C)OC4C2OC2CC(OC(=O)C=CC=CC(=O)OCCC1C)C3(C)C21CO1 (stereo not given)", "TARGET DESC": "cytotoxicity, CellTiter-Glo ATP luminescence", "GROUP": "inactive"}
{"COMPOUND": "CC[C@@]1(O)C(=O)OCc2c1cc1n(c2=O)Cc2cc3ccccc3nc2-1", "TARGET DESC": "cytotoxicity, CellTiter-Glo ATP luminescence", "GROUP": "active"}
{"COMPOUND": "COc1ccc(CNCCC(c2ccc(F)cc2)c2ccc(OC(C)C)cc2)cc1OC (stereo not given)", "TARGET DESC": "cytotoxicity, CellTiter-Glo ATP luminescence", "GROUP": "active"}
{"COMPOUND": "Cc1cc(C(=O)COC(=O)c2ccco2)c(C)n1Cc1ccco1", "TARGET DESC": "cytotoxicity, CellTiter-Glo ATP luminescence", "GROUP": "inactive"}
{"COMPOUND": "Cc1ccc(S(=O)(=O)N2CCCC2CNC(=O)c2ccc3c(c2)OCO3)cc1 (stereo not given)", "TARGET DESC": "cytotoxicity, CellTiter-Glo ATP luminescence", "GROUP": "active"}
{"COMPOUND": "COc1ccc(C(=O)O/N=C2\\C(=O)N(C)c3ccccc32)cc1", "TARGET DESC": "cytotoxicity, CellTiter-Glo ATP luminescence", "GROUP": "active"}
{"COMPOUND": "COc1c(O)cc2oc3cc(O)c(CC=C(C)C)c(O)c3c(=O)c2c1CC=C(C)C", "TARGET DESC": "cytotoxicity, CellTiter-Glo ATP luminescence", "GROUP": "active"}
{"COMPOUND": "CC(=O)Nc1ccc(Sc2ccc([N+](=O)[O-])o2)cc1", "TARGET DESC": "cytotoxicity, CellTiter-Glo ATP luminescence", "GROUP": "active"}
{"COMPOUND": "Cc1ccc(S(=O)(=O)C=CS(=O)(=O)c2ccc(C)cc2)cc1", "TARGET DESC": "cytotoxicity, CellTiter-Glo ATP luminescence", "GROUP": "active"}

How did this test come out for O=C(Nc1ccccc1)N1CC(=O)N2[C@H](CO)[C@@H](c3ccc(C#CC4CCCCC4)cc3)[C@H]2C1 ?
inactive

How did this test come out for CC(C)c1c(O)ccc2c1CCC1C(C)(C)CCC[C@]21C (stereo not given in full) ?
active

How did this test come out for N#Cc1c(Br)n(C2OC(CO)C(O)C2O)c2ncnc(N)c12 (stereo not given) ?
active

How did this test come out for CC(C)NC(=O)N1CC(=O)N2[C@H](CO)[C@@H](c3ccc(/C=C/c4ccccc4)cc3)[C@H]2C1 ?
inactive

How did this test come out for CCS(=O)(=O)N1[C@H](CO)[C@@H](c2ccc(C#Cc3ccccc3F)cc2)[C@@H]1C#N ?
inactive

How did this test come out for COC(=O)C1=C(C(=O)OC)C(C(=O)OC)C(C(=O)OC)C(C(=O)OC)(C(=O)OC)C(C(=O)OC)=C1C(=O)OC (stereo not given) ?
active

How did this test come out for O=C1/C(=C/c2ccccc2)C[C@@]2(O)C3Cc4ccc(O)c5c4[C@@]2(CCN3CC2CC2)[C@H]1O5 ?
active

How did this test come out for [O-]C(=C(C(=S)Nc1cccc2ccccc12)[n+]1ccccc1)c1ccc2c(c1)OCCO2 ?
inactive
